target: Tyrosine-protein kinase Fer (Homo sapiens) (UniProt P16591); conditions: at 0.1 µM;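 note: reported figures are averaged percent inhibition of FER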
Sequence (P16591 whole entry, looked up): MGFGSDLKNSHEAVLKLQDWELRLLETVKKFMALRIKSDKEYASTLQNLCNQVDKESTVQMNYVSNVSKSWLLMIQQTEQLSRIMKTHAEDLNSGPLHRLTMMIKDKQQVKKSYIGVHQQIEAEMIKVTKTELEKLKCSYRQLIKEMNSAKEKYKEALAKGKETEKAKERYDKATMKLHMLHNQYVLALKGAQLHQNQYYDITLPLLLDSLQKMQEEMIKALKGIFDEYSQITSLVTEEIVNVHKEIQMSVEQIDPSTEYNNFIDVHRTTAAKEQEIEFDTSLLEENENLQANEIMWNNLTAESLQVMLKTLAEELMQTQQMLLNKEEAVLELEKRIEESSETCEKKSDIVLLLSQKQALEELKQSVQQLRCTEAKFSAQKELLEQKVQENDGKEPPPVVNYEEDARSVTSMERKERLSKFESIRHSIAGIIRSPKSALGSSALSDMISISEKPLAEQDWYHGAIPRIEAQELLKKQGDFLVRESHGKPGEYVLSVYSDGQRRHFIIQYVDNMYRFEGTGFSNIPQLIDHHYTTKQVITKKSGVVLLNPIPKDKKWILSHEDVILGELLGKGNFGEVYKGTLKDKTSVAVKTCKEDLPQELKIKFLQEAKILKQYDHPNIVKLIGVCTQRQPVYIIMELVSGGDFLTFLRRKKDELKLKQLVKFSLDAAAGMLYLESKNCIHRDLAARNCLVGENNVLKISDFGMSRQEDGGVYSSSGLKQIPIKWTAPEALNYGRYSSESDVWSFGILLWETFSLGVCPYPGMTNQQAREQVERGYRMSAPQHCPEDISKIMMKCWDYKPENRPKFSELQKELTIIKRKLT
measuredAttribute: inhibition (%)
Quick note: give the figure in %, leave out the unit.

Guide cases for inhibition, answers given:
COc1ccc(-c2nn3ncccc3c2-c2ccnc(Nc3ccc(Cl)c(C(F)(F)F)c3)n2)cc1 ... 1.3
Cc1nn(C)c2cc(N(C)c3ccnc(Nc4cccc(S(N)(=O)=O)c4)n3)ccc12 ... 4.27
Cc1nnc(-c2ccc(C)c(-c3ccc(C(=O)Nc4cccc(C#N)c4)cc3)c2)o1 ... 2

I have this molecule here, c1cnn2ncc(-c3ccnc(Nc4ccc5c(c4)OCCO5)n3)c2c1 , and I need its recorded inhibition.
10.7

I have this molecule here, NS(=O)(=O)c1cccc(-c2ccc3c(NC(=O)C4CC4)n[nH]c3c2)c1 , and I need its recorded inhibition.
1.7

I have this molecule here, COC(=O)Nc1nc2cc(Oc3ccc(NC(=O)Nc4cccc(C(=O)O)c4)cc3)ccc2[nH]1 , and I need its recorded inhibition.
-1.22

I have this molecule here, COC(=O)Nc1nc2cc(Oc3cccc(NC(=O)Nc4cc(C(F)(F)F)ccc4F)c3)ccc2[nH]1 , and I need its recorded inhibition.
0.75

I have this molecule here, CCn1c(-c2nonc2N)nc2c(C#CC(C)(C)O)nc(CN3CCCC3)cc21 , and I need its recorded inhibition.
-1.64
